Provenance of the data: ChEMBL document CHEMBL4622910

# Assay: Half life in rat liver microsomes
# Assay type: ADME, Microsome
Under this convention, YES denotes t1/2 strictly below 40 min and NO denotes t1/2 at or above 40 min.

[[record]]
smi = "C[C@@H](Nc1nc2c(cnn2C2CCCC2)c(=O)[nH]1)C(=O)Nc1ccc(F)nc1"
classification = "YES"


Lab note: confirm whether the reported t1/2 for this compound is below 40 min, equality not counting. compound: COc1ccc(NC(=O)[C@@H](C)Nc2nc3c(cnn3C3CCCC3)c(=O)[nH]2)cc1 YES

For C[C@@H](Nc1nc2c(cnn2C2CCCC2)c(=O)[nH]1)C(=O)Nc1ccc2nccn2c1 , is the recorded t1/2 below the cut-off of 40 min? YES

t1/2 under 40 min? Item: C[C@@H](Nc1nc2c(cnn2C2CCCC2)c(=O)[nH]1)C(=O)Nc1ccc2[nH]cnc2c1 NO

Bench note: check whether C[C@@H](Nc1nc2c(cnn2C2CCCC2)c(=O)[nH]1)C(=O)Nc1ccc2[nH]ncc2c1 shows t1/2 below 40 min NO
